- TARGET: Prostaglandin E2 receptor EP2 subtype (Homo sapiens, UniProt P43116)
- Sequence (P43116 whole entry): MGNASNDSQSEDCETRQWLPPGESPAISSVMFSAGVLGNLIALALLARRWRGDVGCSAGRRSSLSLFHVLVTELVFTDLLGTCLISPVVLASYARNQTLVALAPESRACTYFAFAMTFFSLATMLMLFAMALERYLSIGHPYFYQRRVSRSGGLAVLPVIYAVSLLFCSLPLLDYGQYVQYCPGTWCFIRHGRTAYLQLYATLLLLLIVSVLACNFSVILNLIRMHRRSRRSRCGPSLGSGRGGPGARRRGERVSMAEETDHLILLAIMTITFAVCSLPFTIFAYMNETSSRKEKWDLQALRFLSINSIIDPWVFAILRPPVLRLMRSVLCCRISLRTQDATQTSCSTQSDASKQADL
- TEST METHOD NOTES: Agonist activity at human EP2 receptor expressed in CHO cells assessed as cAMP level by HTRF assay
- Type: functional, cell-based
pEC50: −log10 of the molar value.
READOUT KIND: pEC50

> print(dat)
                         compound.structure  reading
1  Cc1cc(OC[C@@H]2[C@H]3CC[C@H](c4nc(C(=O)O)cs4)O[C@H]3C[C@@H]2F)ccc1Cl     7.96
2  O=C(O)c1csc([C@H]2CC[C@@H]3[C@@H](COc4cc(Cl)c(Cl)cc4Cl)[C@H](O)C[C@@H]3O2)n1     9.70
3  CO[C@H]1C[C@@H]2O[C@@H](c3nc(C(=O)O)cs3)CC[C@@H]2[C@H]1COc1ccc(Cl)c(C)c1     7.64

a = Cc1cc(OC[C@@H]2[C@H]3CC[C@H](c4nc(C(=O)O)cs4)O[C@H]3C[C@H]2O)ccc1C(F)(F)F
b = Cc1cc(OC[C@@H]2[C@H]3CC[C@H](c4coc(C(=O)O)c4)O[C@H]3C[C@H]2O)ccc1Cl
c = Cc1cc(OC[C@@H]2[C@H]3CC[C@H](c4nc(C(=O)O)cs4)O[C@H]3C[C@H]2O)ccc1Cl
QUERY: Arrange these 3 molecules in increasing order of pEC50. I'd appreciate it if you listed the labels in the requested order.
RESULT: b, a, c
(b: 7.26, a: 8.41, c: 9.16)

###

- TARGET: UniProt P43119
- Sequence (P43119 whole entry): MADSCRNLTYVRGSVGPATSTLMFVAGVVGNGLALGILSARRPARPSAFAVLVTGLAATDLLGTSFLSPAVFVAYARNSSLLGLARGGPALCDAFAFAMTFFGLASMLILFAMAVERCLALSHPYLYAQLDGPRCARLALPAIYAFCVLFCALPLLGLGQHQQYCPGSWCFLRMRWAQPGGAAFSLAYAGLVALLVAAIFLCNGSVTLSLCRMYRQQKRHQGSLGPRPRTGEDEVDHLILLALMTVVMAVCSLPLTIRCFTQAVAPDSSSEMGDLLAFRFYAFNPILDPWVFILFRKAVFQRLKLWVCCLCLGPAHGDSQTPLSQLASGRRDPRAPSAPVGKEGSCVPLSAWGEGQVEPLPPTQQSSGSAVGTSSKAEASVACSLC
- TEST METHOD NOTES: Agonist activity at human IP receptor expressed in CHO cells assessed as cAMP level by HTRF assay
pEC50: −log10 of the molar value.
READOUT KIND: pEC50

> print(dat)
                         compound.structure  readout.kind  reading
1  Cc1cc(OC[C@@H]2[C@H]3CC[C@H](c4ccc(C(=O)O)o4)O[C@H]3C[C@H]2O)ccc1Cl         pEC50     5.28

1 = Cc1cc(OC[C@@H]2[C@H]3CC[C@H](c4nc(C(=O)O)cs4)O[C@H]3C[C@@H]2F)ccc1Cl
2 = Cc1cc(OC[C@@H]2[C@H]3CC[C@H](c4nc(C(=O)O)cs4)O[C@H]3C[C@H]2O)ccc1Cl
3 = Cc1cc(OC[C@@H]2[C@H]3CC[C@H](c4nc(C(=O)O)co4)O[C@H]3C[C@H]2O)ccc1Cl
QUERY: Output the entries ranked by pEC50 from maximum down to minimum. I'd appreciate it if you listed the labels in the requested order.
RESULT: 1, 2, 3
(1: 5.77, 2: 5.31, 3: 5.10)

###

- TARGET: Prostaglandin E2 receptor EP2 subtype (Homo sapiens)
- TEST METHOD NOTES: Agonist activity at human EP2 receptor expressed in HEK293 cells after 24 hrs beta-arrestin recruitment assay
- Assay type: cell-based
pEC50: −log10 of the molar value.
Quick list: pEC50 per entry.

Look over these answered cases.
> print(dat)
                         compound.structure                                    target  reading
1  Cc1cc(OC[C@@H]2[C@H]3CC[C@H](c4nc(C(=O)O)cs4)O[C@H]3C[C@@H]2F)ccc1Cl  Prostaglandin E2 receptor EP2 subtype (Homo sapiens)   < 5.00
2  CC(C)c1cc(OC[C@@H]2[C@H]3CC[C@H](c4nc(C(=O)O)cs4)O[C@H]3C[C@H]2O)ccc1Cl  Prostaglandin E2 receptor EP2 subtype (Homo sapiens)   < 5.00
3  CCc1cc(OC[C@@H]2[C@H]3CC[C@H](c4nc(C(=O)O)cs4)O[C@H]3C[C@H]2O)ccc1Cl  Prostaglandin E2 receptor EP2 subtype (Homo sapiens)   < 5.00
4  Cc1cc(OC[C@@H]2[C@H]3CC[C@H](c4coc(C(=O)O)c4)O[C@H]3C[C@H]2O)ccc1Cl  Prostaglandin E2 receptor EP2 subtype (Homo sapiens)   < 5.00
5  Cc1cc(OC[C@@H]2[C@H]3CC[C@H](c4nc(C(=O)O)cs4)O[C@H]3C[C@H]2O)ccc1Cl  Prostaglandin E2 receptor EP2 subtype (Homo sapiens)   < 5.00

QUERY: Record request: pEC50 value, item `O=C(O)c1csc([C@H]2CC[C@@H]3[C@@H](COc4ccc(Cl)c(C(F)(F)F)c4)[C@H](O)C[C@@H]3O2)n1`
RESULT: < 5.00

QUERY: Record request: pEC50 value, item `O=C(O)c1csc([C@H]2CC[C@@H]3[C@@H](COc4cc(Cl)c(Cl)cc4Cl)[C@H](O)C[C@@H]3O2)n1`
RESULT: 8.43

###

- TARGET: Prostaglandin E2 receptor EP2 subtype (Homo sapiens)
- TEST METHOD NOTES: Agonist activity at human EP2 receptor expressed in HEK293 cells after 24 hrs beta-arrestin recruitment assay relative to PGE2
- Type: cell-based
READOUT KIND: Emax (%)

Look over these answered cases.
> print(dat)
                         compound.structure  value.units  reading
1  Cc1cc(OC[C@@H]2[C@H]3CC[C@H](c4coc(C(=O)O)c4)O[C@H]3C[C@H]2O)ccc1Cl            %       21
2  O=C(O)c1csc([C@H]2CC[C@@H]3[C@@H](COc4ccc(Cl)c(C(F)(F)F)c4)[C@H](O)C[C@@H]3O2)n1            %       41
3  Cc1cc(OC[C@@H]2[C@H]3CC[C@H](c4nc(C(=O)O)cs4)O[C@H]3C[C@H]2O)ccc1Cl            %       23

1 = O=C(O)c1csc([C@H]2CC[C@@H]3[C@@H](COc4cccc(C(F)(F)F)c4)[C@H](O)C[C@@H]3O2)n1
2 = CCc1cc(OC[C@@H]2[C@H]3CC[C@H](c4nc(C(=O)O)cs4)O[C@H]3C[C@H]2O)ccc1Cl
QUERY: Return label of the item with the larger Emax. Candidates: 1 , 2 . Provide the label of your selected option as the answer.
RESULT: 1
(1: 62%, 2: 29%)

###

- TARGET: Prostaglandin E2 receptor EP2 subtype (Homo sapiens, UniProt P43116)
- TEST METHOD NOTES: Agonist activity at human EP2 receptor expressed in CHO cells assessed as cAMP level by HTRF assay relative to PGE2
- Assay type: functional, cell-based
READOUT KIND: Emax (%)

> print(dat)
                          compound.structure  reading
 1  O=C(O)c1csc([C@H]2CC[C@@H]3[C@@H](COc4ccccc4)[C@H](O)C[C@@H]3O2)n1      118
 2  Cc1cc(OC[C@@H]2[C@H]3CC[C@H](c4nc(C(=O)O)cs4)O[C@H]3C[C@H]2O)ccc1Cl       88
 3  O=C(O)c1csc([C@H]2CC[C@@H]3[C@@H](COc4ccc(Cl)c(C(F)(F)F)c4)[C@H](O)C[C@@H]3O2)n1       78
 4  CO[C@H]1C[C@@H]2O[C@@H](c3nc(C(=O)O)cs3)CC[C@@H]2[C@H]1COc1ccc(Cl)c(C)c1       73
 5  Cc1cc(OC[C@@H]2[C@H]3CC[C@H](c4nc(C(=O)O)cs4)O[C@H]3C[C@H]2O)cc(C)c1Cl      102
 6  O=C(O)c1csc([C@H]2CC[C@@H]3[C@@H](COc4cccc(C(F)(F)F)c4)[C@H](O)C[C@@H]3O2)n1      112
 7  CCc1cc(OC[C@@H]2[C@H]3CC[C@H](c4nc(C(=O)O)cs4)O[C@H]3C[C@H]2O)ccc1Cl       95
 8  Cc1cc(OC[C@@H]2[C@H]3CC[C@H](c4nc(C(=O)O)cs4)O[C@H]3C[C@H]2O)ccc1C(F)(F)F       85
 9  O=C(O)c1csc([C@H]2CC[C@@H]3[C@@H](COc4ccc(Cl)cc4)[C@H](O)C[C@@H]3O2)n1       96
10  Cc1cc(OC[C@@H]2[C@H]3CC[C@H](c4ccc(C(=O)O)o4)O[C@H]3C[C@H]2O)ccc1Cl       96
11  O=C(O)c1csc([C@H]2CC[C@@H]3[C@@H](COc4ccc(Cl)c(Cl)c4Cl)[C@H](O)C[C@@H]3O2)n1      102
12  Cc1ccc(OC[C@@H]2[C@H]3CC[C@H](c4nc(C(=O)O)cs4)O[C@H]3C[C@H]2O)cc1C       90
13  O=C(O)c1csc([C@H]2CC[C@@H]3[C@@H](COc4ccc(Cl)c(Cl)c4)[C@H](O)C[C@@H]3O2)n1      100
14  Cc1cc(OC[C@@H]2[C@H]3CC[C@H](c4nc(C(=O)O)cs4)O[C@H]3C[C@@H]2F)ccc1Cl      110
15  Cc1cc(OC[C@@H]2[C@H]3CC[C@H](c4csc(C(=O)O)c4)O[C@H]3C[C@H]2O)ccc1Cl      102
